Biological target: Shp2 (Src homology 2-containing phosphotyrosine phosphatase 2) (Homo sapiens, UniProt Q06124)
Construct: GST-PTP fusion proteins of human Shp2 (residues 205–597)
Sequence (Q06124 205-593): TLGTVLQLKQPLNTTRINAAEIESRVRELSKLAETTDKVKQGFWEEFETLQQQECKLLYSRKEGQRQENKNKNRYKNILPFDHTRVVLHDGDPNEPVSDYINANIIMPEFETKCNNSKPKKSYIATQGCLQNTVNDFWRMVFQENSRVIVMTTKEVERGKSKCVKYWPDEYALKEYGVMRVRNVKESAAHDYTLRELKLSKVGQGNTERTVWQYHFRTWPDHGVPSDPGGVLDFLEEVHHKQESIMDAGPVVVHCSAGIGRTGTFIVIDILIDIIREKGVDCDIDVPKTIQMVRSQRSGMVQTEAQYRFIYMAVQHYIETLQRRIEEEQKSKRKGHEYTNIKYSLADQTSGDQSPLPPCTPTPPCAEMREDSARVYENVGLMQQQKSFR
Assay: activation of recombinant GST-Shp2 phosphatase activity, DiFMUP fluorescence assay

Compound	EC50
COc1cc([C@H]2Oc3cc4c(cc3[C@@H]2CO)NC(=O)[C@@]4(O)CC#N)ccc1O [compound 1, plasiatine]	970 nM
